- target.desc: Carbonic anhydrase 4 (Homo sapiens)
- Sequence (P22748 whole entry): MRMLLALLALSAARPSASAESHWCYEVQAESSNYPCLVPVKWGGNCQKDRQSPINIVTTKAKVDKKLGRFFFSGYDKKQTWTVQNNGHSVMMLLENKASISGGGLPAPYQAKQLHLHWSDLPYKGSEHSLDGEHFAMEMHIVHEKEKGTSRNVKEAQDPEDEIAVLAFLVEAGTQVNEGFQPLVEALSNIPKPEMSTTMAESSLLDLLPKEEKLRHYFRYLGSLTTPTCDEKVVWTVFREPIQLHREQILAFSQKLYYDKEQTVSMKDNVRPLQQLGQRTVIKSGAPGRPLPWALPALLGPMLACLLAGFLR
- protocol.details: Inhibition of recombinant human carbonic anhydrase IV assessed as inhibition constant incubated for 15 mins by phenol red dye based stopped-flow CO2 hydration assay
pKi: −log10 of the molar value.
measured.parameter: pKi

Take a look at these entries with their results.
Q: Data request, read-out pKi, for `OB1OCc2ccc(-n3cc(COc4ccc(F)cc4)nn3)cc21`
Result: 5.98

Q: Data request, read-out pKi, for `[N-]=[N+]=Nc1ccc2c(c1)B(O)OC2`
Result: 5.51

Q: Data request, read-out pKi, for `CCOC(=O)c1cn(-c2ccc3c(c2)B(O)OC3)nn1`
Result: 5.61

A. OB1OCc2ccc(-n3cc(COc4ccccc4)nn3)cc21
B. O=C(O)c1cccc(-c2cn(-c3ccc4c(c3)B(O)OC4)nn2)c1
C. OB1OCc2ccc(-n3cc(C4CC4)nn3)cc21
Q: Put these in order: smallest pKi first, largest last. Answer format: the labels, ordered as requested.
Result: C, A, B
(C: 5.49, A: 5.86, B: 6.13)

I. COc1cccc(OCc2cn(-c3ccc4c(c3)B(O)OC4)nn2)c1
II. OB1OCc2ccc(-n3cc(-c4ccccc4)nn3)cc21
III. OCCc1cn(-c2ccc3c(c2)B(O)OC3)nn1
IV. O=c1ccc2ccc(OCc3cn(-c4ccc5c(c4)B(O)OC5)nn3)cc2o1
Q: Put these in order: smallest pKi first, largest last. Answer format: the labels, ordered as requested.
Result: IV, I, II, III
(IV: 5.50, I: 5.71, II: 5.93, III: 6.30)

1. OB1OCc2ccc(-n3cc(CSc4ccccc4)nn3)cc21
2. OCc1cn(-c2ccc3c(c2)B(O)OC3)nn1
Q: Lab note: record which item had the higher pKi, 1 or 2 . // return label of chosen record
Result: 2

1. COc1ccc(OCc2cn(-c3ccc4c(c3)B(O)OC4)nn2)cc1
2. CC(C)(C)OC(=O)NCc1cn(-c2ccc3c(c2)B(O)OC3)nn1
Q: I would appreciate it if you could say which entry, 1 or 2 , has the lower pKi value. // return label of chosen record
Result: 1
(1: 5.78, 2: 6.14)

* * *

- target.desc: Carbonic anhydrase 2 (Homo sapiens, UniProt P00918)
- protocol.details: Inhibition of recombinant human carbonic anhydrase II assessed as inhibition constant incubated for 15 mins by phenol red dye based stopped-flow CO2 hydration assay
pKi: −log10 of the molar value.
measured.parameter: pKi

Take a look at these entries with their results.
Q: Data request, read-out pKi, for `[N-]=[N+]=Nc1ccc2c(c1)B(O)OC2`
Result: 6.46

Q: Data request, read-out pKi, for `OB1OCc2ccc(-n3cc(COc4ccc(F)cc4)nn3)cc21`
Result: 6.73

Q: Data request, read-out pKi, for `CC(C)(C)OC(=O)NCc1cn(-c2ccc3c(c2)B(O)OC3)nn1`
Result: 6.34

Q: Data request, read-out pKi, for `OB1OCc2ccc(-n3cc(C4CC4)nn3)cc21`
Result: 5.96

Q: Data request, read-out pKi, for `OB1OCc2ccc(-n3cc(COc4ccccc4)nn3)cc21`
Result: 6.69

a. OB1OCc2ccc(-n3cc(CSc4ccccc4)nn3)cc21
b. OCc1cn(-c2ccc3c(c2)B(O)OC3)nn1
Q: I would appreciate it if you could say which entry, a or b , has the lower pKi value. // return label of chosen record
Result: b

1. O=C(O)c1cccc(-c2cn(-c3ccc4c(c3)B(O)OC4)nn2)c1
2. CCOC(=O)c1cn(-c2ccc3c(c2)B(O)OC3)nn1
Q: I would appreciate it if you could say which entry, 1 or 2 , has the lower pKi value. // return label of chosen record
Result: 2

* * *

- target.desc: Carbonic anhydrase 1 (Homo sapiens)
- Sequence (P00915 whole entry): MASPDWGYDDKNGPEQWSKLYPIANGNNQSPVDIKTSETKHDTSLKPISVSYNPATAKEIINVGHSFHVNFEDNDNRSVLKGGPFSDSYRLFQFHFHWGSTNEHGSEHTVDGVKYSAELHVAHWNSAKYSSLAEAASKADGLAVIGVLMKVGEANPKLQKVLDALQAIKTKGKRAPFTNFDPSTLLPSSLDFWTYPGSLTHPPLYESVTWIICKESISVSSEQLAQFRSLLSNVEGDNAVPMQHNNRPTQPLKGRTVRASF
- protocol.details: Inhibition of recombinant human carbonic anhydrase I assessed as inhibition constant incubated for 15 mins by phenol red dye based stopped-flow CO2 hydration assay
pKi: −log10 of the molar value.
measured.parameter: pKi

Take a look at these entries with their results.
Q: Data request, read-out pKi, for `OB1OCc2ccc(-n3cc(COc4ccccc4)nn3)cc21`
Result: 6.46

Q: Data request, read-out pKi, for `O=C(O)c1cccc(-c2cn(-c3ccc4c(c3)B(O)OC4)nn2)c1`
Result: 6.30

Q: Data request, read-out pKi, for `O=c1ccc2ccc(OCc3cn(-c4ccc5c(c4)B(O)OC5)nn3)cc2o1`
Result: 5.59

Q: Data request, read-out pKi, for `[N-]=[N+]=Nc1ccc2c(c1)B(O)OC2`
Result: 5.52

Q: Data request, read-out pKi, for `OCc1cn(-c2ccc3c(c2)B(O)OC3)nn1`
Result: 5.96

a. OB1OCc2ccc(-n3cc(COc4ccc(F)cc4)nn3)cc21
b. CC(C)(C)OC(=O)NCc1cn(-c2ccc3c(c2)B(O)OC3)nn1
Q: I would appreciate it if you could say which entry, a or b , has the lower pKi value. // return label of chosen record
Result: b
(b: 6.13, a: 6.47)

a. OB1OCc2ccc(-n3cc(-c4ccccc4)nn3)cc21
b. CCOC(=O)c1cn(-c2ccc3c(c2)B(O)OC3)nn1
c. OCCc1cn(-c2ccc3c(c2)B(O)OC3)nn1
d. OB1OCc2ccc(-n3cc(CSc4ccccc4)nn3)cc21
Q: List from greatest to least pKi. Answer format: the labels, ordered as requested.
Result: d, a, c, b

* * *

- target.desc: Carbonic anhydrase 7 (Homo sapiens, UniProt P43166)
- Sequence (P43166 whole entry): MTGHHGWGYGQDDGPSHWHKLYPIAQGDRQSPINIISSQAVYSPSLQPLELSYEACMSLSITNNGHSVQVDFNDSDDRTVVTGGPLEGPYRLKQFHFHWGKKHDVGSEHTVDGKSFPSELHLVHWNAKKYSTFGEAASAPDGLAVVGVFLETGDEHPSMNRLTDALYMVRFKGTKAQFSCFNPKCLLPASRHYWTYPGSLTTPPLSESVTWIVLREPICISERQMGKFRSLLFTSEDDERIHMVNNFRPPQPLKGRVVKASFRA
- protocol.details: Inhibition of recombinant human carbonic anhydrase VII assessed as inhibition constant incubated for 15 mins by phenol red dye based stopped-flow CO2 hydration assay
measured.parameter: Ki (nM)

Take a look at these entries with their results.
Q: Data request, read-out Ki, for `[N-]=[N+]=Nc1ccc2c(c1)B(O)OC2`
Result: 432

Q: Data request, read-out Ki, for `OB1OCc2ccc(-n3cc(COc4ccccc4)nn3)cc21`
Result: 56.2

Q: Data request, read-out Ki, for `OCc1cn(-c2ccc3c(c2)B(O)OC3)nn1`
Result: 141

Q: Data request, read-out Ki, for `OCCc1cn(-c2ccc3c(c2)B(O)OC3)nn1`
Result: 81.7

Q: Data request, read-out Ki, for `CCOC(=O)c1cn(-c2ccc3c(c2)B(O)OC3)nn1`
Result: 441

A. CC(C)(C)OC(=O)NCc1cn(-c2ccc3c(c2)B(O)OC3)nn1
B. OB1OCc2ccc(-n3cc(CSc4ccccc4)nn3)cc21
Q: I would appreciate it if you could say which entry, A or B , has the lower Ki value. // return label of chosen record
Result: B

* * *

- target.desc: Carbonic anhydrase 9 (Homo sapiens)
- protocol.details: Inhibition of recombinant human carbonic anhydrase IX assessed as inhibition constant incubated for 15 mins by phenol red dye based stopped-flow CO2 hydration assay
measured.parameter: Ki (nM)

Take a look at these entries with their results.
Q: Data request, read-out Ki, for `COc1ccc(OCc2cn(-c3ccc4c(c3)B(O)OC4)nn2)cc1`
Result: 52

Q: Data request, read-out Ki, for `OB1OCc2ccc(-n3cc(-c4ccccc4)nn3)cc21`
Result: 122

Q: Data request, read-out Ki, for `CC(C)(C)OC(=O)NCc1cn(-c2ccc3c(c2)B(O)OC3)nn1`
Result: 75.2

Q: Data request, read-out Ki, for `O=c1ccc2ccc(OCc3cn(-c4ccc5c(c4)B(O)OC5)nn3)cc2o1`
Result: 111

Q: Data request, read-out Ki, for `O=C(O)c1cccc(-c2cn(-c3ccc4c(c3)B(O)OC4)nn2)c1`
Result: 114

I. OCCc1cn(-c2ccc3c(c2)B(O)OC3)nn1
II. OB1OCc2ccc(-n3cc(COc4ccc(F)cc4)nn3)cc21
III. OB1OCc2ccc(-n3cc(C4CC4)nn3)cc21
Q: Put these in order: smallest Ki first, largest last. Answer format: the labels, ordered as requested.
Result: II, I, III

* * *

- target.desc: Carbonic anhydrase 2 (Homo sapiens)
- protocol.details: Inhibition of recombinant human carbonic anhydrase II assessed as inhibition constant incubated for 15 mins by phenol red dye based stopped-flow CO2 hydration assay
measured.parameter: Ki (nM)

Q: Data request, read-out Ki, for `COc1cccc(OCc2cn(-c3ccc4c(c3)B(O)OC4)nn2)c1`
Result: 183

Q: Data request, read-out Ki, for `OCCc1cn(-c2ccc3c(c2)B(O)OC3)nn1`
Result: 494

Q: Data request, read-out Ki, for `OB1OCc2ccc(-n3cc(-c4ccccc4)nn3)cc21`
Result: 362

P. COc1ccc(OCc2cn(-c3ccc4c(c3)B(O)OC4)nn2)cc1
Q. O=c1ccc2ccc(OCc3cn(-c4ccc5c(c4)B(O)OC5)nn3)cc2o1
Q: I would appreciate it if you could say which entry, P or Q , has the lower Ki value. // return label of chosen record
Result: P
(P: 258 nM, Q: 375 nM)

* * *

- target.desc: UniProt:P00915
- protocol.details: Inhibition of recombinant human carbonic anhydrase I assessed as inhibition constant incubated for 15 mins by phenol red dye based stopped-flow CO2 hydration assay
pKi: −log10 of the molar value.
measured.parameter: pKi

Q: Request - read-out pKi | tested on UniProt:P00915 | compound `COc1ccc(OCc2cn(-c3ccc4c(c3)B(O)OC4)nn2)cc1`
Result: 6.06

a. COc1cccc(OCc2cn(-c3ccc4c(c3)B(O)OC4)nn2)c1
b. OB1OCc2ccc(-n3cc(C4CC4)nn3)cc21
Q: Lab note: record which item had the higher pKi, a or b . // return label of chosen record
Result: a
(a: 5.96, b: 5.64)
